Where do the numbers come from? From ChEMBL document CHEMBL3244155.

In this section we review reported Activity values for a set of molecules.
Target: Gonadotropin-releasing hormone receptor (Rattus norvegicus) (UniProt P30969)
Sequence (P30969 whole entry): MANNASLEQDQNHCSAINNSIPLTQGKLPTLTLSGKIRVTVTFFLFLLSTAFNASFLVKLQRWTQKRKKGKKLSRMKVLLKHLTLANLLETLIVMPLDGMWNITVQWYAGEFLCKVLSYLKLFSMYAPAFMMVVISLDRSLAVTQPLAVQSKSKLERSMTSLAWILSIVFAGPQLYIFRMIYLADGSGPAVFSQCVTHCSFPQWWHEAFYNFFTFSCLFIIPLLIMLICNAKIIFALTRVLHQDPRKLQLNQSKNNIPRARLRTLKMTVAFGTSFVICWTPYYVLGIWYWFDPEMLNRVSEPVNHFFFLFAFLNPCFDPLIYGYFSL
Assay: Antagonist activity at LH-RH receptor in Sprague-Dawley rat pituitary gland assessed as change in LHRH-stimulated FSH release at 0.1 ug/ml preincubated for 4 hrs followed by LH-RH addition at 5th and 6th hr 5 mins post compound addition and measured for 6 hrs by RIA
Give the value, in units of ng/mL, as a plain number.

Activity recorded for this molecule, CC(C)C[C@H](NC(=O)[C@@H](Cc1ccccc1)NC(=O)[C@H](Cc1ccc(O)cc1)NC(=O)[C@H](CO)NC(=O)[C@H](CCCNC(=N)N)NC(=O)[C@@H](Cc1ccccc1)NC(=O)[C@@H]1CCC(=O)N1)C(=O)N[C@@H](CCCNC(=N)N)C(=O)N1CCC[C@H]1C(=O)NCC(N)=O , is 5390

Activity recorded for this molecule, CC[C@H](C)[C@H](NC(=O)[C@@H](Cc1ccccc1)NC(=O)[C@@H]1CCC(=O)N1)C(=O)N[C@@H](CO)C(=O)N[C@@H](Cc1ccc(O)cc1)C(=O)N[C@H](Cc1c[nH]c2ccccc12)C(=O)N[C@@H](CC(C)C)C(=O)N[C@@H](CCCNC(=N)N)C(=O)N1CCC[C@H]1C(=O)NCC(N)=O , is 2310

====

Molecular target: Gonadotropin-releasing hormone receptor (Rattus norvegicus) (UniProt P30969)
Assay: Antagonist activity at LH-RH receptor in Sprague-Dawley rat pituitary gland assessed as change in LHRH-stimulated FSH release at 1 ug/ml preincubated for 4 hrs followed by LH-RH addition at 5th and 6th hr 5 mins post compound addition and measured for 6 hrs by RIA
Quantity kind: Activity (ng/mL)

| Compound | Recorded result |
| --- | --- |
| CC[C@H](C)[C@H](NC(=O)[C@@H](Cc1ccccc1)NC(=O)[C@@H]1CCC(=O)N1)C(=O)N[C@@H](CO)C(=O)N[C@@H](Cc1ccc(O)cc1)C(=O)N[C@H](Cc1c[nH]c2ccccc12)C(=O)N[C@@H](CC(C)C)C(=O)N[C@@H](CCCNC(=N)N)C(=O)N1CCC[C@H]1C(=O)NCC(N)=O | -348 |
| CC(C)C[C@H](NC(=O)[C@@H](Cc1c[nH]c2ccccc12)NC(=O)[C@H](Cc1ccc(O)cc1)NC(=O)[C@H](CO)NC(=O)[C@@H](NC(=O)[C@@H](Cc1ccccc1)NC(=O)[C@@H]1CCC(=O)N1)C(C)C)C(=O)N[C@@H](CCCNC(=N)N)C(=O)N1CCC[C@H]1C(=O)NCC(N)=O | -1140 |
| CC(C)C[C@H](NC(=O)[C@@H](Cc1c[nH]c2ccccc12)NC(=O)[C@H](Cc1ccc(O)cc1)NC(=O)[C@H](CO)NC(=O)[C@@H](Cc1ccccc1)NC(=O)[C@@H](Cc1ccccc1)NC(=O)[C@@H]1CCC(=O)N1)C(=O)N[C@@H](CCCNC(=N)N)C(=O)N1CCC[C@H]1C(=O)NCC(N)=O | 70 |

P: CC(C)C[C@H](NC(=O)[C@@H](Cc1ccccc1)NC(=O)[C@H](Cc1ccc(O)cc1)NC(=O)[C@H](CO)NC(=O)[C@H](CCCNC(=N)N)NC(=O)[C@@H](Cc1ccccc1)NC(=O)[C@@H]1CCC(=O)N1)C(=O)N[C@@H](CCCNC(=N)N)C(=O)N1CCC[C@H]1C(=O)NCC(N)=O
Q: CC(C)C[C@H](NC(=O)[C@@H](Cc1ccccc1)NC(=O)[C@H](Cc1ccc(O)cc1)NC(=O)[C@H](CO)NC(=O)[C@@H](NC(=O)[C@@H](Cc1ccccc1)NC(=O)[C@@H]1CCC(=O)N1)[C@@H](C)O)C(=O)N[C@@H](CCCNC(=N)N)C(=O)N1CCC[C@H]1C(=O)NCC(N)=O
Ask: // task: argmin of Activity over [ P , Q ] # respond with the chosen item's label
Result: P
(P: 1390 ng/mL, Q: 2450 ng/mL)

====

Molecular target: Gonadotropin-releasing hormone receptor (Rattus norvegicus) (UniProt P30969)
Assay: Antagonist activity at LH-RH receptor in Sprague-Dawley rat pituitary gland assessed as change in LHRH-stimulated FSH release at 0.1 ug/ml preincubated for 4 hrs followed by LH-RH addition at 5th and 6th hr 5 mins post compound addition and measured for 6 hrs by RIA
Quantity kind: Activity (ng/mL)
Give the value, in units of ng/mL, as a plain number.

Log: Gonadotropin-releasing hormone receptor (Rattus norvegicus) (UniProt P30969), molecule CC(C)C[C@H](NC(=O)[C@@H](Cc1c[nH]c2ccccc12)NC(=O)[C@H](Cc1ccc(O)cc1)NC(=O)[C@H](CO)NC(=O)[C@@H](Cc1ccccc1)NC(=O)[C@@H](Cc1ccccc1)NC(=O)[C@@H]1CCC(=O)N1)C(=O)N[C@@H](CCCNC(=N)N)C(=O)N1CCC[C@H]1C(=O)NCC(N)=O , Activity = 2120

====

Biological target: Gonadotropin-releasing hormone receptor (Rattus norvegicus) (UniProt P30969)
Assay: Antagonist activity at LH-RH receptor in Sprague-Dawley rat pituitary gland assessed as change in LHRH-stimulated LH release at 0.1 ug/ml preincubated for 4 hrs followed by LH-RH addition at 5th and 6th hr 5 mins post compound addition and measured for 6 hrs by RIA
Quantity kind: Activity (ng/mL)

Example entries begin here.
| Compound | Recorded result |
| --- | --- |
| CC[C@H](C)[C@H](NC(=O)[C@@H](Cc1ccccc1)NC(=O)[C@@H]1CCC(=O)N1)C(=O)N[C@@H](CO)C(=O)N[C@@H](Cc1ccc(O)cc1)C(=O)N[C@H](Cc1c[nH]c2ccccc12)C(=O)N[C@@H](CC(C)C)C(=O)N[C@@H](CCCNC(=N)N)C(=O)N1CCC[C@H]1C(=O)NCC(N)=O | 143 |
| CC(C)C[C@H](NC(=O)[C@@H](Cc1ccccc1)NC(=O)[C@H](Cc1ccc(O)cc1)NC(=O)[C@H](CO)NC(=O)[C@H](CCCNC(=N)N)NC(=O)[C@@H](Cc1ccccc1)NC(=O)[C@@H]1CCC(=O)N1)C(=O)N[C@@H](CCCNC(=N)N)C(=O)N1CCC[C@H]1C(=O)NCC(N)=O | 276 |

P: CC(C)C[C@H](NC(=O)[C@@H](Cc1ccccc1)NC(=O)[C@H](Cc1ccc(O)cc1)NC(=O)[C@H](CO)NC(=O)CN(C)C(=O)[C@@H](Cc1ccccc1)NC(=O)[C@@H]1CCC(=O)N1)C(=O)N[C@@H](CCCNC(=N)N)C(=O)N1CCC[C@H]1C(=O)NCC(N)=O
Q: CC(C)C[C@H](NC(=O)[C@@H](Cc1ccccc1)NC(=O)[C@H](Cc1ccc(O)cc1)NC(=O)[C@H](CO)NC(=O)[C@@H](NC(=O)[C@@H](Cc1ccccc1)NC(=O)[C@@H]1CCC(=O)N1)[C@@H](C)O)C(=O)N[C@@H](CCCNC(=N)N)C(=O)N1CCC[C@H]1C(=O)NCC(N)=O
Ask: // task: argmin of Activity over [ P , Q ] # respond with the chosen item's label
Result: Q
(Q: 159 ng/mL, P: 339 ng/mL)

====

Molecular target: Gonadotropin-releasing hormone receptor (Rattus norvegicus) (UniProt P30969)
Test: Antagonist activity at LH-RH receptor in Sprague-Dawley rat pituitary gland assessed as change in LHRH-stimulated LH release at 100 ug/ml preincubated for 4 hrs followed by LH-RH addition at 5th and 6th hr 5 mins post compound addition and measured for 6 hrs by RIA
Non-standard residues stand in square brackets, D forms with d. Residues, ends and D or L forms follow the SMILES beside them. pGlu = O=C1CC[C@@H](C(=O)O)N1
Quantity kind: Activity (ng/mL)

| Compound | Output unit | Activity |
| --- | --- | --- |
| CC(C)C[C@H](NC(=O)[C@@H](Cc1c[nH]c2ccccc12)NC(=O)[C@H](Cc1ccc(O)cc1)NC(=O)[C@H](CO)NC(=O)[C@@H](NC(=O)[C@@H](Cc1ccccc1)NC(=O)[C@@H]1CCC(=O)N1)C(C)C)C(=O)N[C@@H](CCCNC(=N)N)C(=O)N1CCC[C@H]1C(=O)NCC(N)=O | ng/mL | 7 |
| CSCC[C@H](NC(=O)[C@@H](Cc1ccccc1)NC(=O)[C@@H]1CCC(=O)N1)C(=O)N[C@@H](CO)C(=O)N[C@@H](Cc1ccc(O)cc1)C(=O)N[C@H](Cc1c[nH]c2ccccc12)C(=O)N[C@@H](CC(C)C)C(=O)N[C@@H](CCCNC(=N)N)C(=O)N1CCC[C@H]1C(=O)NCC(N)=O | ng/mL | 10 |
| CC(C)C[C@H](NC(=O)[C@@H](Cc1c[nH]c2ccccc12)NC(=O)[C@H](Cc1ccc(O)cc1)NC(=O)[C@H](CO)NC(=O)[C@@H](Cc1ccccc1)NC(=O)[C@@H](Cc1ccccc1)NC(=O)[C@@H]1CCC(=O)N1)C(=O)N[C@@H](CCCNC(=N)N)C(=O)N1CCC[C@H]1C(=O)NCC(N)=O | ng/mL | 10 |
| CC(C)C[C@H](NC(=O)[C@@H](Cc1ccccc1)NC(=O)[C@H](Cc1ccc(O)cc1)NC(=O)[C@H](CO)NC(=O)[C@@H](NC(=O)[C@@H](Cc1ccccc1)NC(=O)[C@@H]1CCC(=O)N1)[C@@H](C)O)C(=O)N[C@@H](CCCNC(=N)N)C(=O)N1CCC[C@H]1C(=O)NCC(N)=O | ng/mL | 16 |
| CC(C)C[C@H](NC(=O)[C@@H](Cc1ccccc1)NC(=O)[C@H](Cc1ccc(O)cc1)NC(=O)[C@H](CO)NC(=O)[C@H](CCCNC(=N)N)NC(=O)[C@@H](Cc1ccccc1)NC(=O)[C@@H]1CCC(=O)N1)C(=O)N[C@@H](CCCNC(=N)N)C(=O)N1CCC[C@H]1C(=O)NCC(N)=O | ng/mL | 18 |
| CC(C)C[C@H](NC(=O)[C@@H](Cc1ccccc1)NC(=O)[C@H](Cc1ccc(O)cc1)NC(=O)[C@H](CO)NC(=O)[C@@H]1CCCN1C(=O)[C@@H](Cc1ccccc1)NC(=O)[C@@H]1CCC(=O)N1)C(=O)N[C@@H](CCCNC(=N)N)C(=O)N1CCC[C@H]1C(=O)NCC(N)=O ([pGlu][dF]PSY[dF]LRPG-NH2) | ng/mL | 12 |
| CC[C@H](C)[C@H](NC(=O)[C@@H](Cc1ccccc1)NC(=O)[C@@H]1CCC(=O)N1)C(=O)N[C@@H](CO)C(=O)N[C@@H](Cc1ccc(O)cc1)C(=O)N[C@H](Cc1c[nH]c2ccccc12)C(=O)N[C@@H](CC(C)C)C(=O)N[C@@H](CCCNC(=N)N)C(=O)N1CCC[C@H]1C(=O)NCC(N)=O | ng/mL | 68 |
| CC(C)C[C@H](NC(=O)[C@@H](Cc1ccccc1)NC(=O)[C@H](Cc1ccc(O)cc1)NC(=O)[C@H](CO)NC(=O)CN(C)C(=O)[C@@H](Cc1ccccc1)NC(=O)[C@@H]1CCC(=O)N1)C(=O)N[C@@H](CCCNC(=N)N)C(=O)N1CCC[C@H]1C(=O)NCC(N)=O | ng/mL | 13 |
